List of Ki values.
target: Mu-type opioid receptor (Homo sapiens, UniProt P35372); test: Displacement of [3H]DAMGO from human recombinant Opioid receptor mu 1 on CHO cell membranes.
Sequence (P35372 whole entry): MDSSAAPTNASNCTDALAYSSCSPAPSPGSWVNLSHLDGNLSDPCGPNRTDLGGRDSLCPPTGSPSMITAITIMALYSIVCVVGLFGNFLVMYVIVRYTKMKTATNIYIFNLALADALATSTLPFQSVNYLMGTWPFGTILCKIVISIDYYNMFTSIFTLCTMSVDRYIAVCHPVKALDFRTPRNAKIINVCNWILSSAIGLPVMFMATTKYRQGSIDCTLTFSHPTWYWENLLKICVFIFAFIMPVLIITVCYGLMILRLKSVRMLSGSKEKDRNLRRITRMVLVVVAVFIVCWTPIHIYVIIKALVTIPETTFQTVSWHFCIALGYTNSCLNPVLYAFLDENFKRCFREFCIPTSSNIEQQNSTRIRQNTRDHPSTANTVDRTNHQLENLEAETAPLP
Answer in nM, number only, no unit symbol.

CCCCCCC(=O)N[C@@]12Cc3c([nH]c4ccccc34)[C@@H]3Oc4c(O)ccc5c4[C@@]31CCN(C)C2C5	33.4
CN1CC[C@]23c4c5ccc(O)c4O[C@H]2c2[nH]c4ccccc4c2C[C@@]3(NC(=O)CCc2ccccc2)C1C5	9.61
CN1CC[C@]23c4c5ccc(O)c4O[C@H]2c2[nH]c4ccccc4c2C[C@@]3(CCCc2ccccc2)C1C5	4.91
CN1CC[C@]23c4c5ccc(O)c4O[C@H]2c2[nH]c4ccccc4c2C[C@@]3(NC(=O)Cc2ccccc2)C1C5	29.3
CCN[C@@]12Cc3c([nH]c4ccccc34)[C@@H]3Oc4c(O)ccc5c4[C@@]31CCN(C)C2C5	76.3
CCCCN[C@@]12Cc3c([nH]c4ccccc34)[C@@H]3Oc4c(O)ccc5c4[C@@]31CCN(C)C2C5	37.2
CN1CC[C@]23c4c5ccc(O)c4O[C@H]2c2[nH]c4ccccc4c2C[C@@]3(NCCc2ccccc2)C1C5	1.68
CN1CC[C@]23c4c5ccc(O)c4O[C@H]2c2[nH]c4ccccc4c2C[C@@]3(O)[C@H]1C5	363
CCCCC(=O)N[C@@]12Cc3c([nH]c4ccccc34)[C@@H]3Oc4c(O)ccc5c4[C@@]31CCN(C)C2C5	51.1
CN1CC[C@]23c4c5ccc(O)c4O[C@H]2c2[nH]c4ccccc4c2C[C@@]3(N)C1C5	1050

Attention now shifts to the item below.
## Input For the compound shown here, `CN1CC[C@]23c4c5ccc(O)c4O[C@H]2c2[nH]c4ccccc4c2C[C@@]3(NCCCc2ccccc2)C1C5` , give the reported Ki.
## Output 10.2

---

molecular target: Delta-type opioid receptor (Homo sapiens); test: Displacement of [3H]C1-DPDPE from human recombinant Opioid receptor delta 1 on CHO cell membranes.
Property Name: Ki (nM)
Answer in nM, number only, no unit symbol.

See these solved cases before continuing.
CN1CC[C@]23c4c5ccc(O)c4O[C@H]2c2[nH]c4ccccc4c2C[C@@]3(CCCc2ccccc2)C1C5	23.6
CN1CC[C@]23c4c5ccc(O)c4O[C@H]2c2[nH]c4ccccc4c2C[C@@]3(N)C1C5	2.88
CCCCCCC(=O)N[C@@]12Cc3c([nH]c4ccccc34)[C@@H]3Oc4c(O)ccc5c4[C@@]31CCN(C)C2C5	10.3
CCCCC(=O)N[C@@]12Cc3c([nH]c4ccccc34)[C@@H]3Oc4c(O)ccc5c4[C@@]31CCN(C)C2C5	2.07
CCN[C@@]12Cc3c([nH]c4ccccc34)[C@@H]3Oc4c(O)ccc5c4[C@@]31CCN(C)C2C5	0.73

## Input Fill in the recorded Ki for this compound, with Delta-type opioid receptor (Homo sapiens) as test system: `CN1CC[C@]23c4c5ccc(O)c4O[C@H]2c2[nH]c4ccccc4c2C[C@@]3(NC(=O)CCc2ccccc2)C1C5`
## Output 4.23

## Input Fill in the recorded Ki for this compound, with Delta-type opioid receptor (Homo sapiens) as test system: `CN1CC[C@]23c4c5ccc(O)c4O[C@H]2c2[nH]c4ccccc4c2C[C@@]3(NCCCc2ccccc2)C1C5`
## Output 1.95

## Input Fill in the recorded Ki for this compound, with Delta-type opioid receptor (Homo sapiens) as test system: `CN1CC[C@]23c4c5ccc(O)c4O[C@H]2c2[nH]c4ccccc4c2C[C@@]3(NCCc2ccccc2)C1C5`
## Output 1.1

## Input Fill in the recorded Ki for this compound, with Delta-type opioid receptor (Homo sapiens) as test system: `CCCCN[C@@]12Cc3c([nH]c4ccccc34)[C@@H]3Oc4c(O)ccc5c4[C@@]31CCN(C)C2C5`
## Output 1.39

## Input Fill in the recorded Ki for this compound, with Delta-type opioid receptor (Homo sapiens) as test system: `CN1CC[C@]23c4c5ccc(O)c4O[C@H]2c2[nH]c4ccccc4c2C[C@@]3(O)[C@H]1C5`
## Output 1.28

## Input Fill in the recorded Ki for this compound, with Delta-type opioid receptor (Homo sapiens) as test system: `CN1CC[C@]23c4c5ccc(O)c4O[C@H]2c2[nH]c4ccccc4c2C[C@@]3(NC(=O)Cc2ccccc2)C1C5`
## Output 6.55

---

List of Selectivity values.
target: Opioid receptors; delta & kappa (Homo sapiens) (UniProt P41145+P41143); experiment: Selectivity between kappa opioid receptor and delta opioid receptor.; format: functional
Sequence (P41143 whole entry, looked up): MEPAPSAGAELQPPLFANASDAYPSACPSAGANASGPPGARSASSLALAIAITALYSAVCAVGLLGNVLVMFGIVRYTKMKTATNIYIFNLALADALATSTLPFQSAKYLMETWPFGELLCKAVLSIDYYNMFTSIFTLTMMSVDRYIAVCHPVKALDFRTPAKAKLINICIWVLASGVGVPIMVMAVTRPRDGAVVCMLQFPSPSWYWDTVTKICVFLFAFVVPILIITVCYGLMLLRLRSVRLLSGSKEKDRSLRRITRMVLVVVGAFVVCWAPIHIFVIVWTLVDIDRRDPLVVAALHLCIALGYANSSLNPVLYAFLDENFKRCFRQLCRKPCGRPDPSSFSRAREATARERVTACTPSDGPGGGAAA
Sequence (P41145 whole entry, looked up): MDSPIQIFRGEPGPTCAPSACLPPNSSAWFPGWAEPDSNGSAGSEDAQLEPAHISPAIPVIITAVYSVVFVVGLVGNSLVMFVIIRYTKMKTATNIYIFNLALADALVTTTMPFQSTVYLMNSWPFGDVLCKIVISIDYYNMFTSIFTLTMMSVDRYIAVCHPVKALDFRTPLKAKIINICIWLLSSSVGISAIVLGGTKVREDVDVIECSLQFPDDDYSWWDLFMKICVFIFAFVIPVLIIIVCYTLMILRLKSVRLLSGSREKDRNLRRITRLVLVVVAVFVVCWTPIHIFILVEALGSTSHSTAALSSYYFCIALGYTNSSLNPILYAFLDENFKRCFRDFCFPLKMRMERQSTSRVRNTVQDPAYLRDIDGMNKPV

See these solved cases before continuing.
CN1CC[C@]23c4c5ccc(O)c4O[C@H]2c2[nH]c4ccccc4c2C[C@@]3(CCCc2ccccc2)C1C5	2.7
CCCCCCC(=O)N[C@@]12Cc3c([nH]c4ccccc34)[C@@H]3Oc4c(O)ccc5c4[C@@]31CCN(C)C2C5	40
CN1CC[C@]23c4c5ccc(O)c4O[C@H]2c2[nH]c4ccccc4c2C[C@@]3(NCCc2ccccc2)C1C5	13
CN1CC[C@]23c4c5ccc(O)c4O[C@H]2c2[nH]c4ccccc4c2C[C@@]3(NCCCc2ccccc2)C1C5	4
CCN[C@@]12Cc3c([nH]c4ccccc34)[C@@H]3Oc4c(O)ccc5c4[C@@]31CCN(C)C2C5	87

## Input For the compound shown here, `CCCCC(=O)N[C@@]12Cc3c([nH]c4ccccc34)[C@@H]3Oc4c(O)ccc5c4[C@@]31CCN(C)C2C5` , give the reported Selectivity.
## Output 349

## Input For the compound shown here, `CN1CC[C@]23c4c5ccc(O)c4O[C@H]2c2[nH]c4ccccc4c2C[C@@]3(O)[C@H]1C5` , give the reported Selectivity.
## Output 309

---

List of Stimulation values.
molecular target: Kappa-type opioid receptor (Homo sapiens, UniProt P41145); assay: Percent stimulation of [35S]GTP-gamma-S, binding in recombinant human Opioid receptor kappa 1 transfected into CHO cells; format: functional, cell-based

See these solved cases before continuing.
C[C@@H](NC(=O)[C@@H](N)Cc1ccc(O)cc1)C(=O)NCC(=O)N(C)[C@@H](Cc1ccccc1)C(=O)NCCO	62%
CCCCN[C@@]12Cc3c([nH]c4ccccc34)[C@@H]3Oc4c(O)ccc5c4[C@@]31CCN(C)C2C5	33%

Attention now shifts to the item below.
## Input For the compound shown here, `CN1CC[C@]23c4c5ccc(O)c4O[C@H]2c2[nH]c4ccccc4c2C[C@@]3(CCCc2ccccc2)C1C5` , give the reported Stimulation.
## Output 67%

---

target: UniProtKB P41145; experiment: Stimulation of […] binding at human recombinant Opioid receptor kappa 1 transfected into CHO cells.
Property Name: EC50 (nM)
Answer in nM, number only, no unit symbol.

See these solved cases before continuing.
CN1CC[C@]23c4c5ccc(O)c4O[C@H]2c2[nH]c4ccccc4c2C[C@@]3(NCCc2ccccc2)C1C5	16.4
CN1CC[C@]23c4c5ccc(O)c4O[C@H]2c2[nH]c4ccccc4c2C[C@@]3(CCCc2ccccc2)C1C5	96.5
CCCCN[C@@]12Cc3c([nH]c4ccccc34)[C@@H]3Oc4c(O)ccc5c4[C@@]31CCN(C)C2C5	936

Attention now shifts to the item below.
## Input For the compound shown here, `CCCCC(=O)N[C@@]12Cc3c([nH]c4ccccc34)[C@@H]3Oc4c(O)ccc5c4[C@@]31CCN(C)C2C5` , give the reported EC50.
## Output 56.9

---

List of Selectivity values.
target: Opioid receptors; delta & kappa (Homo sapiens) (UniProt P41145+P41143); experiment: Selectivity between kappa opioid receptor and delta opioid receptor.; type: functional
Lab note: record just the number, no unit beside it.

See these solved cases before continuing.
CN1CC[C@]23c4c5ccc(O)c4O[C@H]2c2[nH]c4ccccc4c2C[C@@]3(NC(=O)Cc2ccccc2)C1C5	23
CN1CC[C@]23c4c5ccc(O)c4O[C@H]2c2[nH]c4ccccc4c2C[C@@]3(NC(=O)CCc2ccccc2)C1C5	5.8

## Input For the compound shown here, `CCCCN[C@@]12Cc3c([nH]c4ccccc34)[C@@H]3Oc4c(O)ccc5c4[C@@]31CCN(C)C2C5` , give the reported Selectivity.
## Output 26
